# targetOrTestSystem: CDK4/CyclinD1 (Homo sapiens)
# Construct: purchased Thermofisher PR8064A
# Sequence (P11802 whole entry): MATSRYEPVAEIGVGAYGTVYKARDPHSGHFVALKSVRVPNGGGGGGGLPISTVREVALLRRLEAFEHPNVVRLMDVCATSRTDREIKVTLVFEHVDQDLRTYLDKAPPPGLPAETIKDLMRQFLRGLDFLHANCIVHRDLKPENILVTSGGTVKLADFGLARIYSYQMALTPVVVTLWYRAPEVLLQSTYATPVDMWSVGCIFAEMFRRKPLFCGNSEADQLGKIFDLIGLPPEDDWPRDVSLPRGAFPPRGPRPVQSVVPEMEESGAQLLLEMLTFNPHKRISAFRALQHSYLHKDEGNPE
# Sequence (P24385 whole entry partner): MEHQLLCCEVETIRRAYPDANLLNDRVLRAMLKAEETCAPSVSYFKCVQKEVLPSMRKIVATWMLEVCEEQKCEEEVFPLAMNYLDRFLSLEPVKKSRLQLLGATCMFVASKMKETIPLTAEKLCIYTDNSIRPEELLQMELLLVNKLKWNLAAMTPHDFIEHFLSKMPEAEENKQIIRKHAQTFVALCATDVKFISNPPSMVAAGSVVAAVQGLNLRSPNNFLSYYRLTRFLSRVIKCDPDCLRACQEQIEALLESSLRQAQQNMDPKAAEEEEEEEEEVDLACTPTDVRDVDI
# experimentDescription: Assay for inhibition of CDK4/CyclinD1 (Caliper microfluidic kinase assay)
# Format: biochemical
# conditionsUsed: comparative compound
pIC50: −log10 of the molar value.
measuredMetric: pIC50

>>> reportedmeasurement("C=CC(=O)Nc1cc(Nc2ncc(F)c(-c3ccn4nc(C)c(C)c4c3)n2)c(OC)cc1N(C)CCN(C)C [Compound 10 disclosed in CN109503573A, reference compound]")
"< 5.00"

====

# System: phosphorylation of Retinoblastoma Protein (pRb Ser807/811 or Ser780) in T47D cells
# experimentDescription: Inhibition of phosphorylation of retinoblastoma protein (pRb) in T47D cell (ELISA)
# Assay type: cell-based, human
# conditionsUsed: Homo sapiens, T47D, read-out: Phospho T47D Ser807 IC50, pRb Ser807 phosphorylation, T47D cells
pIC50: −log10 of the molar value.
measuredMetric: pIC50

>>> reportedmeasurement("CC(C)c1cnn2ccc(-c3ccnc(Nc4ccc(N5CCC(N6CCC6)CC5=O)cn4)n3)cc12 (centres unmarked) [compound 171]")
"> 7.00"
>>> reportedmeasurement("COc1nc(-c2ccnc(Nc3ccc(N4CCOC(C)C4)cn3)n2)cc2c1ncn2C(C)C (centres unmarked) [compound 96]")
"6.30 to 7.00"
>>> reportedmeasurement("COc1nc(-c2nc(Nc3ccc(N4CCNCC4=O)c(F)c3)ncc2F)cc2c1ncn2C(C)C [compound 115]")
"6.30 to 7.00"
>>> reportedmeasurement("CC(C)c1cnn2ccc(-c3ccnc(Nc4ccn(CC5CCN(C(=O)CO)CC5)n4)n3)cc12 [Synthetic Example 55]")
"6.30 to 7.00"
>>> reportedmeasurement("COc1nc(-c2nc(Nc3ccc(N4CCOCC4=O)cn3)ncc2Cl)cc2c1nc(C)n2C(C)C [compound 83]")
"> 7.00"
>>> reportedmeasurement("CNC(=O)c1ccc(Nc2nccc(-c3ccn4ncc(C(C)C)c4c3)n2)cc1 [compound 166]")
"> 7.00"
>>> reportedmeasurement("CC(C)c1cnn2ccc(-c3ccnc(Nc4ccc(N5CCCNCC5=O)cn4)n3)cc12 [compound 30]")
"> 7.00"
>>> reportedmeasurement("CC(C)n1cnc2c(F)nc(-c3ccnc(Nc4ccc(N5CCC(C)(N)CC5=O)cn4)n3)cc21 (centres unmarked) [compound 271]")
"> 7.00"

====

IC50 values by entry
# targetOrTestSystem: CDK6/CyclinD3 (Homo sapiens, UniProt Q00534)
# Construct: purchased Carna 04-107
# Sequence (Q00534 whole entry): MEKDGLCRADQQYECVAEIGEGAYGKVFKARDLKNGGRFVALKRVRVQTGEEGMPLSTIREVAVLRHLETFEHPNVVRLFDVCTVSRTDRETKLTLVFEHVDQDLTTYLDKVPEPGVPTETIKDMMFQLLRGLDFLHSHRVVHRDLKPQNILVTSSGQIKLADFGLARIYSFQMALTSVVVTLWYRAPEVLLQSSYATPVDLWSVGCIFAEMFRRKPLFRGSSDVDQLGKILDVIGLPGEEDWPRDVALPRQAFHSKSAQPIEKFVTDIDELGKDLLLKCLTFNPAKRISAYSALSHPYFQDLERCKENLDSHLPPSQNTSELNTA
# Sequence (P30281 whole entry partner): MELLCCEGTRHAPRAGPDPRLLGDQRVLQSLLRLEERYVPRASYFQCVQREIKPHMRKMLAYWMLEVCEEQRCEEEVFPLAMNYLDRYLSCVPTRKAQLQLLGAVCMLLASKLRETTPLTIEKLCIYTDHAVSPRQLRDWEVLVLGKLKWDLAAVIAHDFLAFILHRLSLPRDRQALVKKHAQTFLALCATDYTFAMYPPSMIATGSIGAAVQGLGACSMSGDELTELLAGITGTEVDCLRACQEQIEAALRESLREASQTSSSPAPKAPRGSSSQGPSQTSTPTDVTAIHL
# experimentDescription: Assay for inhibition of CDK6/CyclinD3 (Caliper microfluidic kinase assay)
# Assay type: biochemical
# conditionsUsed: CDK6/CyclinD3, 300 μM ATP
measuredMetric: IC50

>>> reportedmeasurement("CCN1CCC(Cn2ccc(Nc3ncc(F)c(-c4ccn5ncc(C(C)C)c5c4)n3)cc2=O)CC1")
"10 to 100 nM"
>>> reportedmeasurement("CC(C)c1cnn2ccc(-c3ccnc(Nc4ccc(N5CCNCC5=O)nc4)n3)cc12")
"10 to 100 nM"
>>> reportedmeasurement("CC(C)c1cnn2ccc(-c3ccnc(Nc4ccc5c(c4)CS(=O)(=O)C5)n3)cc12")
"< 10 nM"
>>> reportedmeasurement("CC(C)n1cnc2c(F)nc(-c3ccnc(Nc4ccc(N5CCCC(N)C5=O)cc4)n3)cc21 (stereo not shown)")
"< 10 nM"
